assay: 1,5-addition of methanol-d4 to 2; conditions: solution in pure methanol-d4
Quantity kind: half-life

Lookup: Given the entry CC1(C)C=Cc2c(ccc3c2[N+]([O-])=C2C3=C[C@@]34NC(=O)[C@]5(CCCN5C3=O)C[C@H]4C2(C)C)O1 [avrainvillamide] , report its measured half-life.
Found: < 10 min
